Data provenance: ChEMBL document CHEMBL5214920

System: Mycobacterium tuberculosis
Test: Antitubercular activity against dormant stage of Mycobacterium tuberculosis H37Ra ATCC 25177 assessed as bacterial growth inhibition by XTT assay
Type: functional
Items are presented alongside their recorded MIC.
Please give a number only; it is taken to be in µg/mL.

# example entries with known answers
O=[N+]([O-])c1ccc(-c2n[nH]c(=S)[nH]2)cc1    0.64
CO[C@H]1/C=C/O[C@@]2(C)Oc3c(C)c(O)c4c(O)c(c(/C=N/N5CCN(C)CC5)c(O)c4c3C2=O)NC(=O)/C(C)=C\C=C\[C@H](C)[C@H](O)[C@@H](C)[C@@H](O)[C@@H](C)[C@H](OC(C)=O)[C@@H]1C    0.075
Nc1ccc(-c2n[nH]c(=S)[nH]2)cc1    0.46

Then this compound:
Record lookup: for Mycobacterium tuberculosis, what MIC belongs to NNC(=O)c1ccncc1 ?
0.043

---

Items are presented alongside their recorded MIC.
System: Mycobacterium tuberculosis
Assay: Antitubercular activity against Mycobacterium tuberculosis H37Rv assessed as bacterial growth inhibition measured after 7 days by direct susceptibility assay
Assay type: functional
Conditions: 168 h, time 7 day
Please give a number only; it is taken to be in µg/mL.

COc1c(N2CCNCC2)c(F)cc2c(=O)c(C(=O)O)cn(C3CC3)c12    1.56
O=C1C(=O)N(Cc2cn(Cc3ccc(Br)cc3)nn2)c2ccccc21    8.09

Then this molecule:
Please report the recorded MIC for COc1c(N2CCN(Cc3cn(CCN4C(=O)/C(=N\NC(N)=O)c5cc(Cl)ccc54)nn3)CC2)c(F)cc2c(=O)c(C(=O)O)cn(C3CC3)c12 .
0.39

---

Target: DNA gyrase subunit A/DNA gyrase subunit B (Mycobacterium tuberculosis (strain ATCC 25618 / H37Rv), UniProt P9WG45+P9WG47)
Sequence (P9WG45 whole entry): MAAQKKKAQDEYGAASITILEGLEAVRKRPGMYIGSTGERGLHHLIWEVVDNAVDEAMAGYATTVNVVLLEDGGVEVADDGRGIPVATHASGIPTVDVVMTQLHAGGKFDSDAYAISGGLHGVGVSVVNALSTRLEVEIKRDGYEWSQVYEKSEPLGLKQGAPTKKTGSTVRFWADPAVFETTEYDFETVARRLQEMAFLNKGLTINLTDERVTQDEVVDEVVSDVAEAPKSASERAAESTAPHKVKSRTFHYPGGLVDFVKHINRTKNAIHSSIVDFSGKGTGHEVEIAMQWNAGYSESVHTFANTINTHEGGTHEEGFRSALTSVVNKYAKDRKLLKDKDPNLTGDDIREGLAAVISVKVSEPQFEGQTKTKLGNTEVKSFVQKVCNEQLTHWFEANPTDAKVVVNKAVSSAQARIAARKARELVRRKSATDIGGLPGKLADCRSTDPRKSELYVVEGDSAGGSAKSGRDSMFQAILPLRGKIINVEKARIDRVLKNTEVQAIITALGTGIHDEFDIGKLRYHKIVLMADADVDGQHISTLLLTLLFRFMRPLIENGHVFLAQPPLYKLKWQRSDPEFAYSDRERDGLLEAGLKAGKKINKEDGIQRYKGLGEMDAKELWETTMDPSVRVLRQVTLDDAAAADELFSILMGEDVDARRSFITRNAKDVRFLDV
Sequence (P9WG47 whole entry): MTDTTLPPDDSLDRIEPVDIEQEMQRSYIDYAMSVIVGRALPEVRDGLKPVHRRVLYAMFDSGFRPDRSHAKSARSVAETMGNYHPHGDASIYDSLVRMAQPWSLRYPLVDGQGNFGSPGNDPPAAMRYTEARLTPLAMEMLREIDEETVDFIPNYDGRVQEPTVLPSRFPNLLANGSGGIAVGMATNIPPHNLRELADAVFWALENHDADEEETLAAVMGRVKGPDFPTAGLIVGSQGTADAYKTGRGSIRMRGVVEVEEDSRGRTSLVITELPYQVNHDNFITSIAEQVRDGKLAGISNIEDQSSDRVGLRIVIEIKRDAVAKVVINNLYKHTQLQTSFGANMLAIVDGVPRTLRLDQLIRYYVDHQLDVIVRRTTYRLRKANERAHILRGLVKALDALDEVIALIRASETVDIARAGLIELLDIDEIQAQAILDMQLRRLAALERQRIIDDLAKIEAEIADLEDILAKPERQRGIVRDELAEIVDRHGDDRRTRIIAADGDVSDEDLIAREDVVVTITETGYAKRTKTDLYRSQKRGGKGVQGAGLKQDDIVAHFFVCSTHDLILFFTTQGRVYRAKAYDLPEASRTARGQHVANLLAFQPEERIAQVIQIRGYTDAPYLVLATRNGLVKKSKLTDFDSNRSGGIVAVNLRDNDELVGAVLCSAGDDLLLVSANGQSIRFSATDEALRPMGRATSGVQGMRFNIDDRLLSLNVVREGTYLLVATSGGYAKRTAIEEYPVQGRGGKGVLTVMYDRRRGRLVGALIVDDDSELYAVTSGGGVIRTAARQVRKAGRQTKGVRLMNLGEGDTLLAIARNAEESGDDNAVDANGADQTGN
Test: Inhibition of Mycobacterium tuberculosis DNA gyrase supercoiling activity
measuredParameter: pIC50
// scale note: pIC50 = -log10(conc_M); give the bare number

Please report the recorded pIC50 for COc1ccc2cc(-n3cc(COc4nc(-c5ccccn5)sc4C(N)=O)nn3)c(=O)oc2c1 .
6.30

---

Assay: Cytotoxicity against CHO cells assessed as cell growth inhibition by MTT assay
Assay type: toxicity, cell-based, Cricetulus griseus
Conditions: chinese hamster
measuredParameter: CC50 (µg/mL)
Please give a number only; it is taken to be in µg/mL.

Please report the recorded CC50 for COc1c(N2CCN(C(=O)Cn3cc(CN4C(=O)C(=O)c5cc(C)ccc54)nn3)C(C)C2)c(F)cc2c(=O)c(C(=O)O)cn(C3CC3)c12 (stereo unspecified) .
64

---

Test system: Mycobacterium tuberculosis
Assay: Antitubercular activity against Mycobacterium tuberculosis H37Rv assessed as bacterial growth inhibition measured after 7 days by direct susceptibility assay
Format: functional
Settings: 168 h, time 7 day
measuredParameter: MIC (µg/mL)
Please give a number only; it is taken to be in µg/mL.

# example entries with known answers
O=C(O)c1cn(C2CC2)c2c(NO)c(N3CCN(Cc4cn(CCN5C(=O)/C(=N\O)c6ccccc65)nn4)CC3)c(F)cc2c1=O    0.39
NNC(=O)c1ccncc1    0.075
O=C1C(=O)N(Cc2cn(Cc3ccc([N+](=O)[O-])c([N+](=O)[O-])c3)nn2)c2ccccc21    7.56

Please report the recorded MIC for O=C(O)c1cn(C2CC2)c2cc(N3CCN(Cc4cn(CCN5C(=O)Cc6ccccc65)nn4)CC3)c(F)cc2c1=O .
0.2

---

Molecular target: DNA gyrase subunit B (Mycobacterium smegmatis)
Sequence (P0C559 whole entry): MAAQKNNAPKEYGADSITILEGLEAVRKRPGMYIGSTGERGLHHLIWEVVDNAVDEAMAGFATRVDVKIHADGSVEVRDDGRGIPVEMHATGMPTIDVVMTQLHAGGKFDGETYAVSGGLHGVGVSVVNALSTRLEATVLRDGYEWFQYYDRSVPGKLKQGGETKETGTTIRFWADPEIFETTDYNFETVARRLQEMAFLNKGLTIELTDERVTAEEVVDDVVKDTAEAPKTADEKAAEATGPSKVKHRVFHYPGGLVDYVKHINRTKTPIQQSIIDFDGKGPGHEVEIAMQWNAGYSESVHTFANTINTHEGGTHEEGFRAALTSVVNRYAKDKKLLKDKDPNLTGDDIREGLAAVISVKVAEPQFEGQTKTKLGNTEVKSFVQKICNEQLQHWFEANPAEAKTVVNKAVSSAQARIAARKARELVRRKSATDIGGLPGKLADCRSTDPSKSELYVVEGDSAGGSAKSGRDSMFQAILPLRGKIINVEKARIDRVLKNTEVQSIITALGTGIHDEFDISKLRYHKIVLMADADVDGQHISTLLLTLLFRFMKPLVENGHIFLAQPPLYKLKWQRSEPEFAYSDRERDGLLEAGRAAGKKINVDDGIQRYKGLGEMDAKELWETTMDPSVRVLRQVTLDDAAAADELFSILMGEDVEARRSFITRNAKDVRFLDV
Experiment: Inhibition of Mycobacterium smegmatis GyrB incubated for 120 mins in presence of ATP by malachite green r staining based assay
measuredParameter: pIC50
// scale note: pIC50 = -log10(conc_M); give the bare number

Please report the recorded pIC50 for COc1ccc2cc(-n3cc(COc4nc(-c5ccccn5)sc4C(N)=O)nn3)c(=O)oc2c1 .
6.36

---

System: Mycobacterium tuberculosis
Assay: Antitubercular activity against Mycobacterium tuberculosis H37Rv assessed as bacterial growth inhibition measured after 7 days by direct susceptibility assay
Format: functional
Settings: 168 h, time 7 day
measuredParameter: MIC (µg/mL)
Please give a number only; it is taken to be in µg/mL.

CO/N=C1/C(=O)C(CCOCCOCCOCCn2cc(CN3C(=O)/C(=N/OC)c4cc(F)ccc43)nn2)c2ccccc21 (stereo not drawn)    128
CO[C@H]1/C=C/O[C@@]2(C)Oc3c(C)c(O)c4c(O)c(c(/C=N/N5CCN(C)CC5)c(O)c4c3C2=O)NC(=O)/C(C)=C\C=C\[C@H](C)[C@H](O)[C@@H](C)[C@@H](O)[C@@H](C)[C@H](OC(C)=O)[C@@H]1C [RIFAMPIN]    0.043

Then this compound:
Please report the recorded MIC for O=C(O)c1cn(C2CC2)c2cc(N3CCNCC3)c(F)cc2c1=O [CIPROFLOXACIN] .
3.12
